Measured Affinity increase by item
- Assayed Target: T1, AFP158/HLA-A*02:01 complex (human)
- T1 construct: flowed over the chip in SPR; also called AFP158 pro
- Test Description: SPR, KD ratio to AS170036 VL1VH1;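 note: crude scFv captured on a sensor chip, peptide–HLA complex passed over at several concentrations, association then buffer dissociation, KD derived from on- and off-rates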
Kindly answer with a numeric value in fold, unit omitted.

Use the examples below as a reference point.
INSERT INTO measurements (binder, reading_unit, recorded_number) VALUES
  ('LE32P (scFv, AS170036 VL1VH1 scFv mutein) scFv: QSALTQPRSVSGSPGQSVTISCAGTSSDVGSPNYVSWYQQHPGKAPKLMIYQVNKRASGVPDRFSGSKSGNTASLTISGLQAEDEADYYCASYRSSDHNIVFGGGTKLTVLGGGGSGGGGSGGGGSEVQLVESGGGLVQPGGSLRLSCAASGFTFSSYAMSWVRQAPGKGLEWVSTINSGTGSPYYADSVKGRFTISRDNSKNTLYLQMNSLRAEDTAVYYCAKNFFDGSWFLGPPAMDYWGQGTLVTVSSHHHHHH', 'fold', 0.2),
  ('LY93L (scFv, AS170036 VL1VH1 scFv mutein) scFv: QSALTQPRSVSGSPGQSVTISCAGTSSDVGSENYVSWYQQHPGKAPKLMIYQVNKRASGVPDRFSGSKSGNTASLTISGLQAEDEADYYCASLRSSDHNIVFGGGTKLTVLGGGGSGGGGSGGGGSEVQLVESGGGLVQPGGSLRLSCAASGFTFSSYAMSWVRQAPGKGLEWVSTINSGTGSPYYADSVKGRFTISRDNSKNTLYLQMNSLRAEDTAVYYCAKNFFDGSWFLGPPAMDYWGQGTLVTVSSHHHHHH', 'fold', 1.3);

Now turn to the next binder.
Data request: Quick check: Affinity increase of LH98K (scFv, AS170036 VL1VH1 scFv mutein) scFv: QSALTQPRSVSGSPGQSVTISCAGTSSDVGSENYVSWYQQHPGKAPKLMIYQVNKRASGVPDRFSGSKSGNTASLTISGLQAEDEADYYCASYRSSDKNIVFGGGTKLTVLGGGGSGGGGSGGGGSEVQLVESGGGLVQPGGSLRLSCAASGFTFSSYAMSWVRQAPGKGLEWVSTINSGTGSPYYADSVKGRFTISRDNSKNTLYLQMNSLRAEDTAVYYCAKNFFDGSWFLGPPAMDYWGQGTLVTVSSHHHHHH ?
Data returned: 0.2
